System: Saccharomyces cerevisiae
protocolText: protein stability index of tFT-peptide fusion (C-terminal peptide) (PSI (0-1 scale)); higher = more stable (slower turnover)
cond: genetic background: wild type; temperature: 30 C
Readings of protein stability index for the listed sequences
Reply: number alone, nothing else.

Study these solved cases before continuing.
orderedResidues	measuredTarget	protein stability index
FNVTKKSLTNHS [CDS1 C-terminal 12 aa]	Saccharomyces cerevisiae	0.742
RRQMGIPTISQV [FHN1 C-terminal 12 aa]	Saccharomyces cerevisiae	0.684
LLSLPSSTLTKS [YIL068W-A C-terminal 12 aa]	Saccharomyces cerevisiae	0.702
DAAIVKKYKNKT [NUP57 C-terminal 12 aa]	Saccharomyces cerevisiae	0.692
FDSNVSVAVDER [SET5 C-terminal 12 aa]	Saccharomyces cerevisiae	0.651
VFLIISQHSLHS [YBL113W-A C-terminal 12 aa]	Saccharomyces cerevisiae	0.646
TRFFDSKYFGCD [URK1 C-terminal 12 aa]	Saccharomyces cerevisiae	0.73
IRAAGGVVELIA [RPL28 C-terminal 12 aa]	Saccharomyces cerevisiae	0.652

Item: KDNSVGKILNST [BOP3 C-terminal 12 aa] | protein stability index: 0.71
